Reference source for all entries: patent US20260325685A1

# test-system: human CA-IX (Homo sapiens, UniProt Q16790)
# Construct: purchased Acro CA9-H82E3
# experiment: Surface Plasmon Resonance (SPR) binding kinetics to recombinant human CA-IX (Biacore 8K, single-cycle kinetics, 1:1 binding model)
# conditions-used: Chelated Metal: Lu-175; SPR, 25° C., pH 7.4; read-out: CAIX KD
pKd: −log10 of the molar value.
Provide the reported pKd of each item.

Enquiry: Please give the documented pKd of `NS(=O)(=O)c1nnc(NC(=O)C23CCC(c4cn(CCNC(=O)[C@@H]5CN(C(=O)CN6CCN(CC(=O)O)CCN(CC(=O)O)CCN(CC(=O)O)CC6)CCN5C(=O)CC[C@H](NC(=O)C[C@H](NC(=O)CCC56CCC(CC5)C6)C(=O)O)C(=O)O)nn4)(CC2)CC3)s1.[Lu+3]`
Return: > 9.00

Enquiry: For the compound `CC(C)c1ccc(C(=O)N[C@@H](CC(=O)N[C@@H](CC(=O)N2CCN(C(=O)CN3CCN(CC(=O)O)CCN(CC(=O)O)CCN(CC(=O)O)CC3)C[C@H]2C(=O)NCCn2cc(C34CC(C(=O)Nc5nnc(S(N)(=O)=O)s5)(C3)C4)nn2)C(=O)O)C(=O)O)cc1.[Lu+3]` , report pKd.
Return: 8.60 to 9.00

Enquiry: Complete the entry with pKd for `CC(C)(C)c1ccc(C(=O)N[C@@H](CC(=O)N[C@@H](CC(=O)N2CCN(C(=O)CN3CCN(CC(=O)O)CCN(CC(=O)O)CCN(CC(=O)O)CC3)C[C@H]2C(=O)NCCn2cc(C34CC(C(=O)Nc5nnc(S(N)(=O)=O)s5)(C3)C4)nn2)C(=O)O)C(=O)O)cc1.[Lu+3]`
Return: 8.60 to 9.00

Enquiry: Give the reported pKd for this compound. CC(CCC(=O)N[C@@H](CC(=O)N[C@@H](CC(=O)N[C@@H](CCCCn1cc(C23CCC(C(=O)Nc4nnc(S(N)(=O)=O)s4)(CC2)C3)nn1)C(=O)NCCOCCNC(=O)CCC(C(=O)O)N1CCN(CC(=O)O)CCN(CC(=O)O)CCN(CC(=O)O)CC1)C(=O)O)C(=O)O)(c1ccc(O)cc1)c1ccc(O)cc1.[Lu+3] (stereo partly shown)
Return: > 9.00

Enquiry: Hello, please tell me recorded pKd for this one: `NS(=O)(=O)c1nnc(NC(=O)C23CC(c4cn(CCCC[C@@H](C(=O)NCCOCCOCCNC(=O)CN5CCN(CC(=O)O)CCN(CC(=O)O)CCN(CC(=O)O)CC5)n5cc(C[C@H](NC(=O)C[C@H](NC(=O)c6n[nH]c7ccccc67)C(=O)O)C(=O)O)nn5)nn4)(C2)C3)s1.[Lu+3]`
Return: > 9.00

Enquiry: Answer with the recorded pKd for the compound listed here: `CC(CCC(=O)N[C@@H](CC(=O)N[C@@H](CC(=O)NC1(CCCCn2cc(CCC(=O)Nc3nnc(S(N)(=O)=O)s3)nn2)CCN(C(=O)OCCOCCNC(=O)CN2CCN(CC(=O)O)CCN(CC(=O)O)CCN(CC(=O)O)CC2)CC1)C(=O)O)C(=O)O)(c1ccc(O)cc1)c1ccc(O)cc1.[Lu+3]`
Return: 8.00 to 8.60

Enquiry: Give recorded pKd. `NS(=O)(=O)c1nnc(NC(=O)C23CCC(c4cn(CCNC(=O)[C@@H]5CN(C(=O)CN6CCN(CC(=O)O)CCN(CC(=O)O)CCN(CC(=O)O)CC6)CCN5C(=O)CC[C@H](NC(=O)C[C@H](NC(=O)CCc5ccc(O)cc5)C(=O)O)C(=O)O)nn4)(CC2)CC3)s1.[Lu+3]`
Return: > 9.00

Enquiry: Report pKd, nothing else, for this compound: `NS(=O)(=O)c1nnc(NC(=O)C23CC(c4cn(C[C@H]5CN(C(=O)CN6CCN(CC(=O)O)CCN(CC(=O)O)CCN(CC(=O)O)CC6)CCN5C(=O)CNC(=O)C5(C(=O)O)CCN(C(=O)Cc6n[nH]c7ccccc67)CC5)nn4)(C2)C3)s1.[Lu+3]`
Return: > 9.00

Enquiry: Retrieve pKd measured for `NS(=O)(=O)c1nnc(NC(=O)C23CC(c4cn(CCNC(=O)[C@@H]5CN(C(=O)CN6CCN(CC(=O)O)CCN(CC(=O)O)CCN(CC(=O)O)CC6)CCN5C(=O)CNC(=O)C5(C(=O)O)CCN(C(=O)CC6CC7(CCC7)C6)CC5)nn4)(C2)C3)s1.[Lu+3]` and print it.
Return: > 9.00

Enquiry: Please list pKd recorded for the compound `CC(CCCC(=O)N1CCC(C(N)=O)(C(=O)NCC(=O)NC2(C(=O)NCCn3cc(C45CC(C(=O)Nc6nnc(S(N)(=O)=O)s6)(C4)C5)nn3)CCN(C(=O)CC[C@H](C(=O)O)N3CCN(CC(=O)O)CCN(CC(=O)O)CCN(CC(=O)O)CC3)CC2)CC1)(c1ccc(O)cc1)c1ccc(O)cc1.[Lu+3]`
Return: > 9.00

Enquiry: Determine from records and report pKd for `NS(=O)(=O)c1nnc(NC(=O)C23CC(c4cn(CCNC(=O)[C@@H]5CN(C(=O)CN6CCN(CC(=O)O)CCN(CC(=O)O)CCN(CC(=O)O)CC6)CCN5C(=O)C[C@H](NC(=O)C[C@H](NC(=O)Cc5n[nH]c6ccccc56)C(=O)O)C(=O)O)nn4)(C2)C3)s1.[Lu+3]`
Return: > 9.00

Enquiry: State, in one line, measured pKd of `CC(CCCC(=O)N1CCC(C(=O)O)(C(=O)NCC(=O)N2CCN(C(=O)CN3CCN(CC(=O)O)CCN(CC(=O)O)CCN(CC(=O)O)CC3)C[C@H]2C(=O)NCCn2cc(C34CC(C(=O)Nc5nnc(S(N)(=O)=O)s5)(C3)C4)nn2)CC1)(c1ccc(O)cc1)c1ccc(O)cc1.[Lu+3]`
Return: 8.60 to 9.00

Enquiry: Provide only the value of recorded pKd for `CC(CCCC(=O)N1CCC(C(N)=O)(C(=O)NCC(=O)NC2(C(=O)NCCn3cc(C45CC(c6cn7nc(S(N)(=O)=O)sc7n6)(C4)C5)nn3)CCN(C(=O)CN3CCN(CC(=O)O)CCN(CC(=O)O)CCN(CC(=O)O)CC3)CC2)CC1)(c1ccc(O)cc1)c1ccc(O)cc1.[Lu+3]`
Return: > 9.00
